Please go through the items and note down their EC50.
molecular target: T1, recombinant Fc-tag-fused human Notch-1 extracellular domain (Homo sapiens, UniProt P46531); test: ELISA; multi-point Fab-ELISA: target immobilised at 5 ug/ml on MaxiSorp plates; purified Fab 0.01 nM-1 uM in PT for 30 min; detected with HRP-conjugated anti-HIS antibody; EC50 from a one-site specific-binding fit; conditions: both partners purified
T1 construct: Notch-1, human, extracellular domain; No catalogue number and no residue limits are printed; also called N1; source: bought: R&D Systems
T1 sequence (P46531 19-1735): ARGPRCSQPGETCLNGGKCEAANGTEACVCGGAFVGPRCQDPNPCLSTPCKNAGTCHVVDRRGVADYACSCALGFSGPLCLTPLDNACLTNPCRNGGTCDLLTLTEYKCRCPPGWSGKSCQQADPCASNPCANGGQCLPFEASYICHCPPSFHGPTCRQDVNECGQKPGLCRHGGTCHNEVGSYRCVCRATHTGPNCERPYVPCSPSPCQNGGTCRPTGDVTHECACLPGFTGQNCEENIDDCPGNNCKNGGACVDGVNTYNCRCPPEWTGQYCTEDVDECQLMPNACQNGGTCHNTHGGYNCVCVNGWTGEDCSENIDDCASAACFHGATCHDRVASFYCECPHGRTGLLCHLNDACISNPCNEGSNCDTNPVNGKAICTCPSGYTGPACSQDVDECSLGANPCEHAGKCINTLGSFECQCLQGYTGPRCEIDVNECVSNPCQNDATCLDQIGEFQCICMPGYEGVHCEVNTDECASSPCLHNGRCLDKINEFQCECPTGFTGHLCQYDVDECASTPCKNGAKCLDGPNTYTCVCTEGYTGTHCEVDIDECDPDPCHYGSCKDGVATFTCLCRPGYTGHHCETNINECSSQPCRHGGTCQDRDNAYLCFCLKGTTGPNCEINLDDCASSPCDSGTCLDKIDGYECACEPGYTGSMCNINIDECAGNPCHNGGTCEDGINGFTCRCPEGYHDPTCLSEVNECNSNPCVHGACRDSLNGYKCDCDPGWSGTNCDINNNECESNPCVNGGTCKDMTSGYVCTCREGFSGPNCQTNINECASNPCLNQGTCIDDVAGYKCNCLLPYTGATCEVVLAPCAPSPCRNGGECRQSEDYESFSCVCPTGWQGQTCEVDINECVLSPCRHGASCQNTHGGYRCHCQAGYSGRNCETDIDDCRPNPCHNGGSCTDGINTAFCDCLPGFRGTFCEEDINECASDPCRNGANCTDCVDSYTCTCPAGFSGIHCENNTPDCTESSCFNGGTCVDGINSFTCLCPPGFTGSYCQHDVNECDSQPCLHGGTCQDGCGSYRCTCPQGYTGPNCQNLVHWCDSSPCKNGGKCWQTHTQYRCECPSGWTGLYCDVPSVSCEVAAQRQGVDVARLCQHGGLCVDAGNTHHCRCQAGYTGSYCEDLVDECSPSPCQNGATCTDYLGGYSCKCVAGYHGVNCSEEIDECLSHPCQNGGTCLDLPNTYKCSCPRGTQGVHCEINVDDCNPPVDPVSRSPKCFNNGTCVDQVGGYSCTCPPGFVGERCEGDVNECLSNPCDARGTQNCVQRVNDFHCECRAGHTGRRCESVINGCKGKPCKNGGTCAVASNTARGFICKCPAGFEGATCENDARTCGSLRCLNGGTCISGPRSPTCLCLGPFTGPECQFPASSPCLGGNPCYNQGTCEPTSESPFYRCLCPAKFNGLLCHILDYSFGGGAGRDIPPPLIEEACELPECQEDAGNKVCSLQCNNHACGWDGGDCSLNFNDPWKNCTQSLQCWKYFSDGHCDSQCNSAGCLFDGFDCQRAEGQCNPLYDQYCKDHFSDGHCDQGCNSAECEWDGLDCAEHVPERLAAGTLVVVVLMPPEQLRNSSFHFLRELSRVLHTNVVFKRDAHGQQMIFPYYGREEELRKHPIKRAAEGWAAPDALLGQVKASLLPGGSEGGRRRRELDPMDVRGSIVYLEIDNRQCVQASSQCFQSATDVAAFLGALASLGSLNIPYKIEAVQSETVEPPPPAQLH

INSERT INTO results (binder, value_type, observed_result) VALUES
  ('Fab N1/F/1 (purified soluble Fab) (Fab, V domains shown, light chain on the modified trastuzumab framework of Library-F (Persson et al., 2013); CDRs L1 and L2 fixed; Fab heavy chain on the modified trastuzumab framework of Library-F; short CDRH3; The Fab is detected by an anti-HIS antibody; source: E. coli BL21, purified (Protein-L resin)) VH: EVQLVESGGGLVQPGGSLRLSCAASGFNISSYSMHWVRQAPGKGLEWVAYISSSYGSTYYADSVKGRFTISADTSKNTAYLQMNSLRAEDTAVYYCARSWALDYWGQGTLVTVSS VL: DIQMTQSPSSLSASVGDRVTITCRASQSVSSAVAWYQQKPGKAPKLLIYSASSLYSGVPSRFSGSRSGTDFTLTISSLQPEDFATYYCQQYWGPITFGQGTKVEIK', 'EC50', '~4 nM'),
  ('Fab N1/F/3 (purified soluble Fab) (Fab, V domains shown, light chain on the modified trastuzumab framework of Library-F (Persson et al., 2013); CDRs L1 and L2 fixed; Fab heavy chain on the modified trastuzumab framework of Library-F; short CDRH3; The Fab is detected by an anti-HIS antibody; source: E. coli BL21, purified (Protein-L resin)) VH: EVQLVESGGGLVQPGGSLRLSCAASGFNLYSYYIHWVRQAPGKGLEWVASISSYYGYTSYADSVKGRFTISADTSKNTAYLQMNSLRAEDTAVYYCARYWHGALDYWGQGTLVTVSS VL: DIQMTQSPSSLSASVGDRVTITCRASQSVSSAVAWYQQKPGKAPKLLIYSASSLYSGVPSRFSGSRSGTDFTLTISSLQPEDFATYYCQQGYFTYLFTFGQGTKVEIK', 'EC50', '~4 nM');

Proceeding to the next binder to report its EC50.
Query block: Return reported EC50. Input binder: Fab N1/F/R2 (purified soluble Fab) (Fab, V domains shown, light chain on the modified trastuzumab framework of Library-F (Persson et al., 2013); CDRs L1 and L2 fixed; clone reconstructed from NGS information; Fab heavy chain on the modified trastuzumab framework of Library-F; medium CDRH3 length; The Fab is detected by an anti-HIS antibody; source: E. coli BL21, purified (Protein-L resin)) VH: EVQLVESGGGLVQPGGSLRLSCAASGFNFSSSSIHWVRQAPGKGLEWVASIYSYYGYTYYADSVKGRFTISADTSKNTAYLQMNSLRAEDTAVYYCARSWWGGSWYAALDYWGQGTLVTVSS VL: DIQMTQSPSSLSASVGDRVTITCRASQSVSSAVAWYQQKPGKAPKLLIYSASSLYSGVPSRFSGSRSGTDFTLTISSLQPEDFATYYCQQWWSLITFGQGTKVEIK
Result block: ~4 nM

Source: paper PMC9381698
